The measurements presented in this section are drawn from ChEMBL document CHEMBL1961873.

Biological target: Non-receptor tyrosine-protein kinase TYK2 (Homo sapiens);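 also: values are mean percent inhibition of TYK2 kinase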
Settings: at 1 µM
# Lookup of reported inhibition keyed by entry
Express your answer in %, writing the number without its unit.

NC(=O)c1ccc(-c2nc(-c3ccccn3)c(-c3ccc4c(c3)OCO4)[nH]2)cc1    -0.31
CCn1c(-c2nonc2N)nc2cnc(Oc3cccc(NC(=O)c4ccc(OCCN5CCOCC5)cc4)c3)cc21    -1.28
CN(C)c1cc2c(Nc3ccc4nc(Cc5ccccc5)[nH]c4c3)ncnc2cn1    -7.84
CCn1c(-c2nonc2N)nc2c(C#CC(C)(C)O)nc(CN3CCCC3)cc21    -0.89
N#Cc1c(NC(=O)c2cccc3ccccc23)sc2c1CCCC2    -3.92

Req: Which inhibition value is on record for CCn1c(-c2nonc2N)nc2cncc(C(=O)N3CC[C@H](N)C3)c21 ?
Resp: -0.04

Req: Given the compound COc1ccccc1Nc1ncc(-c2ccccc2)o1 , what is its reported inhibition?
Resp: -0.92

* * *

Target: Rho-associated protein kinase 1 (Homo sapiens) (UniProt Q13464);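 also: values are mean percent inhibition of ROCK1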
Sequence (Q13464 2-1354 limits assumed): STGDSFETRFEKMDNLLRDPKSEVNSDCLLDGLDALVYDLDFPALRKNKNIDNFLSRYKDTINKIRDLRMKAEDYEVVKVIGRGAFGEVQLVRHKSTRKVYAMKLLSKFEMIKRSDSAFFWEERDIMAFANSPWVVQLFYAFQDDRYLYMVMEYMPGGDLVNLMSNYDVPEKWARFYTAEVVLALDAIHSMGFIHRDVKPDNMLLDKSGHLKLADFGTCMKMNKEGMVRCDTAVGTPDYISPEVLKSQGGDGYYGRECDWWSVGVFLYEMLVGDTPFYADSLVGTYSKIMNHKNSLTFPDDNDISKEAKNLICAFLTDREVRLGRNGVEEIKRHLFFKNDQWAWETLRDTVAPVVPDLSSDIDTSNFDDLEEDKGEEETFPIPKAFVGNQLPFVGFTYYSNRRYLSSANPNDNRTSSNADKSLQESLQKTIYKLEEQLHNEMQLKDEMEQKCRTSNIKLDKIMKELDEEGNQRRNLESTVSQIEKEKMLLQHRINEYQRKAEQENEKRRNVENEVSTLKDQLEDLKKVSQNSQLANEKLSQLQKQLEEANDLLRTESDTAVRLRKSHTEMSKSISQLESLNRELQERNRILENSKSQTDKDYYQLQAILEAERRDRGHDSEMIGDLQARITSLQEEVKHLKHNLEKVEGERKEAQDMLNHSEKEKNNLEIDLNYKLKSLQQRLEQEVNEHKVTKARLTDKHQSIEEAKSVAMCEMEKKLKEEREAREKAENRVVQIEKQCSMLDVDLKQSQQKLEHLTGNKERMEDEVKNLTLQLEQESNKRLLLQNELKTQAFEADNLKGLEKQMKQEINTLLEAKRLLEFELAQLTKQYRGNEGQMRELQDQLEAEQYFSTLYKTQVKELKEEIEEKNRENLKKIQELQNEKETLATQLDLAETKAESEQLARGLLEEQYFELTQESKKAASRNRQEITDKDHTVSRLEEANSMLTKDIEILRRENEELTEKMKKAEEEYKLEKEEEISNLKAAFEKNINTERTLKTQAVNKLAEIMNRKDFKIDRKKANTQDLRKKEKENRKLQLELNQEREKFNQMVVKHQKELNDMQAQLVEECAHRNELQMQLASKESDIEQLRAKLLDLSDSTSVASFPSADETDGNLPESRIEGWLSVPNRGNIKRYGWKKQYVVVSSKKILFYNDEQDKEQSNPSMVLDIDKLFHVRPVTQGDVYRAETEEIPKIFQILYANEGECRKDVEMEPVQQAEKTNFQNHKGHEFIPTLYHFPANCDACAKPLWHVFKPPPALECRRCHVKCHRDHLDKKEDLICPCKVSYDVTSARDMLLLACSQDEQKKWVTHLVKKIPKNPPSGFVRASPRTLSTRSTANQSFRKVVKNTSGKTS
Conditions: at 0.1 µM
Catalogue of compounds with associated inhibition
Quick reminder: number only, in %, skip the unit.

CC(=O)Nc1cccc(C#Cc2cncnc2Nc2ccc(OCc3cccc(F)c3)c(Cl)c2)n1    1.28

Req: Name the reported inhibition value associated with the compound Nc1nc(-c2ccccn2)c(-c2ccc3ncccc3n2)s1
Resp: 0.46

Req: Any idea what inhibition was measured for N#Cc1c(NC(=O)c2cccc3ccccc23)sc2c1CCCC2 ?
Resp: 0.98

Req: Any idea what its inhibition is? The compound is COc1cc2ncn(-c3cc(OCc4ccccc4Cl)c(C(N)=O)s3)c2cc1OC
Resp: -0.3

Req: What value of measured inhibition is listed for O=C(Nc1n[nH]c2nc(-c3ccco3)c(Br)cc12)C1CC1 ?
Resp: 0.16

Req: Data request, read-out inhibition, for COc1cc2ncn(-c3cc(O[C@H](C)c4ccccc4Cl)c(C(N)=O)s3)c2cc1OC
Resp: 1.18

Req: For Cc1cccc(-c2n[nH]cc2-c2ccc3ncccc3n2)n1 , what is its reported inhibition?
Resp: 0.48

* * *

Recorded inhibition for the following compounds
Molecular target: Receptor-type tyrosine-protein kinase FLT3 (Homo sapiens) (UniProt P36888);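 also: values are mean percent inhibition of FLT3 kinase activity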
Sequence (P36888 whole entry): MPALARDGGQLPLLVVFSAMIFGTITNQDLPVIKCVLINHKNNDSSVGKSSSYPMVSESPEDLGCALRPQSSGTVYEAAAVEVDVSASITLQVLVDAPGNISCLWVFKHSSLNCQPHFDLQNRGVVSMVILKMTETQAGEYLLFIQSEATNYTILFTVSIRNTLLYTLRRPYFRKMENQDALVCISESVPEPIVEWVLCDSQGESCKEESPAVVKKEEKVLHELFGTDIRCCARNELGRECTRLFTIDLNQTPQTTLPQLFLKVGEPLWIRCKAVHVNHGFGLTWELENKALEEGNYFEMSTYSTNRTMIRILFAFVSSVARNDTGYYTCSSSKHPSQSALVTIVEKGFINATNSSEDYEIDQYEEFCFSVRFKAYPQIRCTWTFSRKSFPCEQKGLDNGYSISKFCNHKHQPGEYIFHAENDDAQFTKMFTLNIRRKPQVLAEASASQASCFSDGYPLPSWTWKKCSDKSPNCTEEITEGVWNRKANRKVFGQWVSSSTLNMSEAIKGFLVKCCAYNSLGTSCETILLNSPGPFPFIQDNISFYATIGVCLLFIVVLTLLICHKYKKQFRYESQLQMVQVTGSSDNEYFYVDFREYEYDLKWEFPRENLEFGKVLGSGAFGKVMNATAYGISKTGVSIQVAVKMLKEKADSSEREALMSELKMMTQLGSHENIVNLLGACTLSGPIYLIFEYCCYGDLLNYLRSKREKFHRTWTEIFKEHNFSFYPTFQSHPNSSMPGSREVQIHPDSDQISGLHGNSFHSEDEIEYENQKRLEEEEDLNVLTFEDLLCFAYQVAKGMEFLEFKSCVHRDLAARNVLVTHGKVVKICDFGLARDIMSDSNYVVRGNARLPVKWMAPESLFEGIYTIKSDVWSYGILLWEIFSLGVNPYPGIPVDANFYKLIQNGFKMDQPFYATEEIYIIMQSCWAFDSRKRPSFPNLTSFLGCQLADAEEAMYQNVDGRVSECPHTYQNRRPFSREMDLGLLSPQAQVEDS
Conditions: at 1 µM

Solved entries (count: 2):
CCn1c(-c2nonc2N)nc2cnc(Oc3cccc(NC(=O)c4ccc(OCCN5CCOCC5)cc4)c3)cc21    3.19%
CC(=O)Nc1cccc(C#Cc2cncnc2Nc2ccc(OCc3cccc(F)c3)c(Cl)c2)n1    -0.61%

Req: What does the record list as inhibition for c1cnn2ncc(-c3ccnc(Nc4ccc5c(c4)OCCO5)n3)c2c1 ?
Resp: 75.7%

* * *

Molecular target: Vascular endothelial growth factor receptor 3 (Homo sapiens)
Conditions: at 0.1 µM
Description: GSK_PKIS: FLT4 mean inhibition at 0.1 uM [Nanosyn]
Recorded inhibition values for a group of compounds are listed next.
State just the number; it will be interpreted in %.

The following compounds have reported results that may help.
O=C1NC(=O)C(c2ccccc2Cl)=C1Nc1cccc(O)c1    3.25
NS(=O)(=O)c1cccc(-c2ccc3c(NC(=O)C4CC4)n[nH]c3c2)c1    2.99

// next item, inhibition requested
Req: Data request, read-out inhibition, for CS(=O)(=O)CCNCc1ccc(-c2ccc3ncnc(Nc4ccc(OCc5cccc(F)c5)c(C(F)(F)F)c4)c3c2)o1
Resp: -0.03

* * *

Molecular target: Tyrosine-protein kinase Srms (Homo sapiens) (UniProt Q9H3Y6);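 also: reported value is a mean of the inhibition readings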
Sequence (Q9H3Y6 whole entry): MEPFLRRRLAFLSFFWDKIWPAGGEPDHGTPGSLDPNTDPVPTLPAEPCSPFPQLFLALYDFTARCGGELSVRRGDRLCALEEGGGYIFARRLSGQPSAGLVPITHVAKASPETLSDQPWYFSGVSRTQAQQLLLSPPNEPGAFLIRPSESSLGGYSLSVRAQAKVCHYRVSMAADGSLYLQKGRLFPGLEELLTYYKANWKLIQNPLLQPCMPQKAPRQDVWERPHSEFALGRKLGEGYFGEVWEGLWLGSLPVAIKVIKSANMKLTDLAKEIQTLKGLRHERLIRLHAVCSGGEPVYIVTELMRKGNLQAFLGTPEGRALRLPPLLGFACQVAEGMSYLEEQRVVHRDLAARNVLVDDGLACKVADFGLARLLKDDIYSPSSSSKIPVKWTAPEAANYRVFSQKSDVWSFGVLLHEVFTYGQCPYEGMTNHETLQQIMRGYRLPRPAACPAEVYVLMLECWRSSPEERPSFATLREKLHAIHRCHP
Details: at 0.1 µM
We begin with a simple list: items and their reported inhibition.
Answer in %, number only, no unit symbol.

COc1cc2ncn(-c3cc(OCc4ccccc4C(F)(F)F)c(C(N)=O)s3)c2cc1OC    -2.2
CC1=C(C(=O)Nc2ccc3[nH]ncc3c2)C(c2ccc(Cl)c(Cl)c2)CC(=O)N1 (centres undefined)    1.99
COc1cc2ncn(-c3cc(OCc4ccccc4Cl)c(C(N)=O)s3)c2cc1OC    2.74

Req: Recorded inhibition for CS(=O)(=O)CCNCc1ccc(-c2ccc3ncnc(Nc4ccc(OCc5ccccc5)c(Cl)c4)c3c2)o1 , please?
Resp: -0.03

Req: Suppose we examine the molecule Nc1nc(-c2ccccn2)c(-c2ccc3ncccc3n2)s1 ; what inhibition value has been reported?
Resp: -0.44

* * *

Target: NT-3 growth factor receptor (Homo sapiens) (UniProt Q16288);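 also: mean TRKC inhibition from the GSK PKIS kinase inhibitor set, with assays run by Nanosyn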
Sequence (Q16288 32-839 limits assumed): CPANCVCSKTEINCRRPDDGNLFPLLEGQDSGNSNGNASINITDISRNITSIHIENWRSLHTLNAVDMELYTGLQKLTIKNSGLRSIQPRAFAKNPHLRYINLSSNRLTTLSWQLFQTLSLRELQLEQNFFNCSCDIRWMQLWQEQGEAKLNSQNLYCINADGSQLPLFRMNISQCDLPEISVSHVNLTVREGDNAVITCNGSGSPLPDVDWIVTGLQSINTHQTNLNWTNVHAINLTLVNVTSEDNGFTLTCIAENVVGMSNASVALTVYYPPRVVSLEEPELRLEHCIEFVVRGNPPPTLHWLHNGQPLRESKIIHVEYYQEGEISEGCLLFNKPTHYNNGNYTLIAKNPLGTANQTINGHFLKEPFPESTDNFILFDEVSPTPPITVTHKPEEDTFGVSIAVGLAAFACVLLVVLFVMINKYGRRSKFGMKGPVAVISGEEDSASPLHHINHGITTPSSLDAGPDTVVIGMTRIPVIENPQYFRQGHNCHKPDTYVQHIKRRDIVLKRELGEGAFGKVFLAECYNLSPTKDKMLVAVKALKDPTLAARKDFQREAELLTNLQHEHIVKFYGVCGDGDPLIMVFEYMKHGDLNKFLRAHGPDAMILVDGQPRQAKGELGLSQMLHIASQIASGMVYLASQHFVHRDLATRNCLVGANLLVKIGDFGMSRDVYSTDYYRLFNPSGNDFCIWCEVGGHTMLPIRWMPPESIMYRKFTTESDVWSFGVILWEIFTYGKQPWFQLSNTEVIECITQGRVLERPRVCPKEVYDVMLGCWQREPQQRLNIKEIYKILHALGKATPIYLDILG
Settings: at 1 µM
value_type: inhibition (%)
Give a bare numeral; the unit % is implied.

Here is how some compounds turned out for inhibition.
CCCN1CCC=C(c2ccc(Nc3nc(Nc4ccccc4C(N)=O)c4cc[nH]c4n3)c(C)c2)C1    3.13
COc1ccccc1Nc1ncc(-c2ccccc2)o1    9.48
COc1ccc(-c2ccncc2)cc1C(N)=O    4.79

Req: Quick one: inhibition of CS(=O)(=O)CCN(CC#N)Cc1ccc(-c2ccc3ncnc(Nc4ccc(OCc5cccc(F)c5)c(Cl)c4)c3c2)o1 ?
Resp: 1.13

Req: Could you share which inhibition value was measured for CN(C)c1cc2c(Nc3ccc4nc(Cc5ccccc5)[nH]c4c3)ncnc2cn1 ?
Resp: 4.24

* * *

Molecular target: Protein kinase C eta type (Homo sapiens) (UniProt P24723);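 also: values are the mean percent inhibition of PKC-eta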
Sequence (P24723 whole entry): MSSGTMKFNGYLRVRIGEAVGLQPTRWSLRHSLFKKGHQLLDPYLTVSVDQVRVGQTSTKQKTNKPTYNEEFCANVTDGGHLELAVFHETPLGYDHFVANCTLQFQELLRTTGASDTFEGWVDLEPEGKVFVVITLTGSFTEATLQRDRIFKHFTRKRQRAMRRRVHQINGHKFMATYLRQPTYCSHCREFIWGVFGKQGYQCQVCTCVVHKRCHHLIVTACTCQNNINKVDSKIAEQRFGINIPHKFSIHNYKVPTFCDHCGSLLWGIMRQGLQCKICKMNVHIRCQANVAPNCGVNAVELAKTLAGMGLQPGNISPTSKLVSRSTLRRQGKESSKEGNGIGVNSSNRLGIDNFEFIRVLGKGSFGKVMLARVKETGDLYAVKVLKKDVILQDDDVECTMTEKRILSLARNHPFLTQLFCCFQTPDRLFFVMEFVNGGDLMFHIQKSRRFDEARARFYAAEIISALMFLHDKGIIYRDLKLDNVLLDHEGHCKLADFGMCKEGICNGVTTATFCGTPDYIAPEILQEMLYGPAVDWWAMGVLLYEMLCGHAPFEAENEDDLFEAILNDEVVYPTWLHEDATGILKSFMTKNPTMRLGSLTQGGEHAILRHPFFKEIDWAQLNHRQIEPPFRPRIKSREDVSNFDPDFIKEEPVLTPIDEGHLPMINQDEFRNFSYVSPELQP
Conditions: at 0.1 µM
value_type: inhibition (%)
# number only, unit % dropped from output

COc1ccc(-c2ccncc2)cc1C(N)=O    3.72

Req: Would you mind telling me what inhibition value was observed for CS(=O)(=O)CCNCc1ccc(-c2ccc3ncnc(Nc4ccc(OCc5ccccc5)c(Cl)c4)c3c2)o1 ?
Resp: 1.32

Req: Requested read-out: inhibition. Entry: CC(C)=Cc1cccc2c1/C(=N/Nc1ccc(S(N)(=O)=O)cc1)C(=O)N2
Resp: 0.51

Req: Look up inhibition: Fc1cccc(COc2ccc(Nc3ncnc4sc(-c5cccs5)cc34)cc2Cl)c1
Resp: 1.43

Req: Return reported inhibition; argument: CCn1c(-c2nonc2N)nc2c(C#CC(C)(C)O)nc(CN3CCCC3)cc21
Resp: 19.5

Req: Quick check: inhibition of COc1ccccc1Nc1ncc(-c2ccccc2)o1 ?
Resp: 7.06

* * *

Biological target: Tyrosine-protein kinase JAK3 (Homo sapiens)
Sequence (whole entry): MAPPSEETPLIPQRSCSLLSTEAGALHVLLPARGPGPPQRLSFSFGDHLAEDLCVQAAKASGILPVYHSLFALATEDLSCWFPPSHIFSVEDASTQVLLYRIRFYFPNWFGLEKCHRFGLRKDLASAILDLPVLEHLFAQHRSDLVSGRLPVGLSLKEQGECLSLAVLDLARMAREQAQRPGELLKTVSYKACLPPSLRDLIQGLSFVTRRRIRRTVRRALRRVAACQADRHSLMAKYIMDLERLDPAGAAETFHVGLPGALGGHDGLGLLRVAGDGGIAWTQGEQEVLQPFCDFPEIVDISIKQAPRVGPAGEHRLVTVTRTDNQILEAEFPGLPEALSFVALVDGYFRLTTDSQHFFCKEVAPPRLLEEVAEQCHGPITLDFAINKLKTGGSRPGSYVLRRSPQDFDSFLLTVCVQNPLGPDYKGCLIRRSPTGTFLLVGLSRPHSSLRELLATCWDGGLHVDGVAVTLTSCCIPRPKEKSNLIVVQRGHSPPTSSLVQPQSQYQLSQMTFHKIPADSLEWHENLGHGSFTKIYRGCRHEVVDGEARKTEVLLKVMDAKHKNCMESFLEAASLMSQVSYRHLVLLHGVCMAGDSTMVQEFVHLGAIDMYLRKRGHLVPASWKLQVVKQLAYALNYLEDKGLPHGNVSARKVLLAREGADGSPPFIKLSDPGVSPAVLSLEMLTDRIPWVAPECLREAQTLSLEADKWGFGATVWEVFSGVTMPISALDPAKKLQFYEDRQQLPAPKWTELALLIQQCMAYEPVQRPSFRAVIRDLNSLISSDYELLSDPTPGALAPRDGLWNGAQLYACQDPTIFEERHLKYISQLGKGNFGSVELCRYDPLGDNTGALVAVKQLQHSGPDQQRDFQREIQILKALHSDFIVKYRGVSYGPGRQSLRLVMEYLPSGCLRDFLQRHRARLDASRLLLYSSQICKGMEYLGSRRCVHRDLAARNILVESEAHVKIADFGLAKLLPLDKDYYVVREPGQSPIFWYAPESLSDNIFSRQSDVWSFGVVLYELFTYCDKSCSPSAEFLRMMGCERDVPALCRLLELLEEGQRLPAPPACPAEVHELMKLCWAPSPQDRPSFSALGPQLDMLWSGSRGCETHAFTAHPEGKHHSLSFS
Conditions: at 1 µM
Description: GSK_PKIS: JAK3 mean inhibition at 1 uM [Nanosyn]
# inhibition values compiled below
Field format: number, assumed %, no unit text.

# example entries with known answers
O=C1Nc2ccc(C(=O)c3ccco3)cc2C1=Cc1cc(Cl)c(O)c(Cl)c1    66.9
CS(=O)(=O)CCN(CC#N)Cc1ccc(-c2ccc3ncnc(Nc4ccc(OCc5cccc(F)c5)c(Cl)c4)c3c2)o1    -5.16
Cc1ccc(NC(=O)c2ccnc(N3CCCC3)c2)cc1-c1ccc(C(=O)NCC2CC2)cc1    2.32
CNC(=O)c1cncc(/C=C/c2c(Cl)cccc2Cl)c1    -3.71
NC(=O)c1ccc(-c2nc(-c3ccccn3)c(-c3ccc4c(c3)OCO4)[nH]2)cc1    0.2

Req: Fill in the blank: the reported inhibition of O=C(Nc1n[nH]c2nc(-c3ccco3)c(Br)cc12)C1CC1 is ____.
Resp: 1.18

Req: # inhibition lookup, item CC1=C(C(=O)Nc2ccc3[nH]ncc3c2)C(c2ccc(Cl)c(Cl)c2)CC(=O)N1 (stereo not given)
Resp: 18

Req: // inhibition lookup, key: COc1cc2ncn(-c3cc(OCc4ccccc4Cl)c(C(N)=O)s3)c2cc1OC
Resp: 4.86

Req: I would be grateful if you could share the reported inhibition for Fc1cccc(COc2ccc(Nc3ncnc4sc(-c5cccs5)cc34)cc2Cl)c1 .
Resp: 1.31

Req: # inhibition lookup, item COc1cc2ncn(-c3cc(O[C@@H](C)c4ccccc4Cl)c(C(N)=O)s3)c2cc1OC
Resp: 1.97

Req: Can you look up the measured inhibition of c1cnn2ncc(-c3ccnc(Nc4ccc5c(c4)OCCO5)n3)c2c1 for me?
Resp: 46

Req: # query: inhibition of entry CN1CCC(C(=O)Nc2n[nH]c3nnc(-c4ccccc4)cc23)CC1
Resp: -0.3

Req: Look up inhibition: COc1cc2ncn(-c3cc(OCc4ccccc4C(F)(F)F)c(C(N)=O)s3)c2cc1OC
Resp: -2.61

Req: inhibition for COc1ccccc1Nc1ncc(-c2ccccc2)o1 ?
Resp: -1.96

Req: Query (compound): CCn1c(-c2nonc2N)nc2cncc(C(=O)N3CC[C@H](N)C3)c21 ; field requested: inhibition
Resp: -0.29

Req: Sample COc1ccc(-c2nn3ncccc3c2-c2ccnc(Nc3ccc(Cl)c(C(F)(F)F)c3)n2)cc1 — what was its inhibition?
Resp: -0.67

Req: Given the entry CCn1c(-c2nonc2N)nc2c(N3CCCC3)nccc21 , report its measured inhibition.
Resp: 2.23

Req: Find the recorded inhibition belonging to COc1ccc2cc(-c3c(-c4ccncc4)nc(-c4ccc([S+](C)[O-])cc4)n3C)ccc2c1 (stereo not given) and report it.
Resp: 0.05

Req: Would you kindly share the measured inhibition for Nc1ncnc2occ(-c3ccc(NC(=O)Nc4cc(C(F)(F)F)cc(C(F)(F)F)c4)cc3)c12 ?
Resp: 0.78

Req: What value of measured inhibition is listed for NS(=O)(=O)c1cccc(-c2ccc3c(NC(=O)C4CC4)n[nH]c3c2)c1 ?
Resp: 1.58
